- PROCEDURE SUMMARY: Plasma concentration in mouse at 10 mg/kg, po after 8 hrs
- Assay type: ADME, organism-based
MEASURED QUANTITY: concentration at 8 h (nM)
The reply should contain only the number, in nM.

// lookup concentration at 8 h for CCc1cc2c(cc1-c1cnn(CCCN(C)C)c1)C(C)(C)c1[nH]c3cc(C#N)ccc3c1C2=O
170

Numbers sourced from ChEMBL document CHEMBL3745656.
